# testSystem: T1, native human IL-33 from human lung fibroblast (HFL-1) lysate (human, UniProt O95760 1-270, limits assumed)
# T1 sequence (looked up): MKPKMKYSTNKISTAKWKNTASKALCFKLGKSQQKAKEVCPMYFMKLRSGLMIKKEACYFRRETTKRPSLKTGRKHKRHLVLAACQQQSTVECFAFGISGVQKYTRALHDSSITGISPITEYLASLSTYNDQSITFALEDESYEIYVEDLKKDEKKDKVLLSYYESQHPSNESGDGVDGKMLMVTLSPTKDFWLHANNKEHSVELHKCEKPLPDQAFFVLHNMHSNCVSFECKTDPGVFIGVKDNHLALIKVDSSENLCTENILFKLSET
# protocolText: cell-based or functional assay
Listing of recorded % inhibition 1 nM Ab, HEK293 ST2 NFkB by entry.
Number in %, nothing else.

30B11 chimera/hu J (antibody, human IgG1, kappa, V domains shown, also called 30B11 hu Jseg) VH: QVKLLQSGAALVKPGASVKMSCATSGFSFTDYWVSWVKQSHGKGLEWIGEIYPNSGADNFNENFKGKATLTVDKSTSTAYMELSRLTSEDSAIYYCTRGPYYYSTQIIFAYWGQGTLVTVSS VL: NIVMTQSPKSMSISVGDRVTMNCKASQNVGNNLAWYQQKPGQSPKLLIYYASNRYTGVPDRFTGGGYGTDFTLTINSVQAEDAAFYYCQRIYNSPPTFGGGTKVEIKR | 109
rat 7E8 (7E8 hybridoma) (antibody, V domains shown) VH: EVQLVETGGGLVQPGRSLKLSCKTSGFTFSSYWMYWIRQAPGKGLEWVSSITPNGGNTYYPDSVKGRFTISRDNAENTIYLQMSSLRSEDTATYFCAKGHYYYTSYSLGYWGQGSLVTVSS VL: EIQMTQSPSVLSASVGDRVTLSCKASQNINKHLDWYQQKLGEAPKLLIYFTNNLQTGIPSRFSGSGSGTDCTLTINSLQPGDVATYFCFQYNNGWTFGGGTKLELD | 110
rat 30A1 (30A1 hybridoma) (antibody, V domains shown) VH: QVNLLQSGATLVKPGASMKMSCKASGYSFTDYWVSWVKQSHGKSLEWIGEIYPNSGANNFNKEFKDKATLTVDKSTSTAYMELTRLTSEDSAVYYCTRGPYYYSSQIIFAYWGQGTLVTVSS VL: IIVMTQSPKSMSISVGDRVTMNCKASQNVGNNIAWYRQKPGQSPELLIYYASNRYTGVPDRFTGGGYGTDFTLTINSVQAEDAAFYYCQRIYNSPPTFGGGTKVELK | 77.3

The recorded % inhibition 1 nM Ab, HEK293 ST2 NFkB for entry 14D8 chimera/hu J (antibody, human IgG1, kappa, V domains shown, also called 14D8 huJseg) VH: EVQLVDSGGDQVQPGRSLKLSCVASGFIFKNYWMTWIRQVPGKGLEWIASITNSGGNTYYPDSVKGRFTISRDNAKDTLYLQMNSLRSEDTATYYCARDRRYNSGSPFAYWGQGTLVTVSS VL: DIQLTQSPSTLPASLGERVTISCRTSQSINNNLCWYQQKPDGTVKRLIYSTSTLESGVPSRFSGSGSGTDYSLSISSLESQDFAMYYCLQYATYPWTFGQGTKVEIKR equals 99.6
